- assay: Stability in CD-1 mouse plasma assessed as half life at 1 uM measured upto 240 mins by LC-MS/MS analysis
- Assay type: ADME, cell-free
- condition-description: mouse, 4 h, 1 µM
measurement-name: t1/2 (h)

Please review the following examples before continuing.
CCOC(=O)SC[C@H](NC(=O)NC[C@H](N)C(=O)O)C(=O)NCC(=O)O : 47.14
Cl.N[C@@H](CNC(=O)N[C@@H](CS)C(=O)NCC(=O)OC1CCCC1)C(=O)OC1CCCC1 : 72.2

I = N[C@@H](CNC(=O)N1C(=O)SC[C@H]1C(=O)NCC(=O)O)C(=O)O
II = CC(=O)SC[C@H](NC(=O)NC[C@H](N)C(=O)O)C(=O)NCC(=O)O
III = CCOC(=O)SC[C@H](NC(=O)NC[C@H](N)C(=O)OC1CCCC1)C(=O)NCC(=O)OC1CCCC1
Form: Sort by [t1/2] Order [ ascending ] // ordering of labels required in reply II, I, III

---

- assay: Stability in CD-1 mouse assessed as half life at intestinal phase of gastrointestinal tract at 1 uM measured upto 240 mins by LC-MS/MS analysis
- Format: ADME
- condition-description: CD-1, mouse, intestinal phase of gastrointestinal tract
measurement-name: half-life at 1 µM (h)
Express the result in h but write the number alone.

Recorded half-life at 1 µM of N[C@@H](CNC(=O)N[C@@H](CS)C(=O)NCC(=O)O)C(=O)O , please. 1.28

---

- assay: Stability in CD-1 mouse assessed as half life at gastric phase of gastrointestinal tract at 1 uM measured upto 240 mins by LC-MS/MS analysis
- Type: ADME
- condition-description: CD-1, mouse, gastric phase of gastrointestinal tract
measurement-name: half-life at 1 µM (min)
Express the result in min but write the number alone.

Recorded half-life at 1 µM of N[C@@H](CNC(=O)N[C@@H](CS)C(=O)NCC(=O)O)C(=O)O , please. 1720

---

- assay: Stability in CD-1 mouse brain homogenate assessed as half life at 1 uM measured upto 240 mins by LC-MS/MS analysis
- Assay type: ADME, tissue-based
measurement-name: half-life at 1 µM (min)
Express the result in min but write the number alone.

Recorded half-life at 1 µM of N[C@@H](CNC(=O)N[C@@H](CS)C(=O)NCC(=O)O)C(=O)O , please. 90.6

---

- assay: Stability in CD-1 mouse plasma assessed as half life at 1 uM measured upto 240 mins by LC-MS/MS analysis
- Assay type: ADME, cell-free
- condition-description: CD-1, mouse
measurement-name: half-life at 1 µM (h)

I = N[C@@H](CNC(=O)N[C@@H](CS)C(=O)NCC(=O)O)C(=O)O
II = N[C@@H](CNC(=O)N1CSC[C@H]1C(=O)NCC(=O)O)C(=O)O
Endpoint returns the identifier whose half-life at 1 µM is numerically larger, either I or II . # respond with the chosen item's label II
(II: 30.6 h, I: 0.23 h)

---

- assay: Reversal of resistant against po dosed Abeta1-42 induced cognitive impairment in mouse assessed as reduction in repetitive arm entries (reference value: 3.22+/-0.27)
- Format: organism-based
- condition-description: in vivo
measurement-name: repetitive arm entries
// no unit string in output, number only

Recorded repetitive arm entries of Cl.N[C@@H](CNC(=O)N[C@@H](CS)C(=O)NCC(=O)OC1CCCC1)C(=O)OC1CCCC1 , please. 1.8

Reference source: ChEMBL document CHEMBL5096237
